The reported numbers originate from patent US20210356479A1.

Biological target: T1, human Kell glycoprotein, k form (KEL2) (human, UniProt P23276 1-732)
T1 construct: whole, on cells; On human k/k or K-k+ RBCs; also called k antigen
T1 sequence (looked up): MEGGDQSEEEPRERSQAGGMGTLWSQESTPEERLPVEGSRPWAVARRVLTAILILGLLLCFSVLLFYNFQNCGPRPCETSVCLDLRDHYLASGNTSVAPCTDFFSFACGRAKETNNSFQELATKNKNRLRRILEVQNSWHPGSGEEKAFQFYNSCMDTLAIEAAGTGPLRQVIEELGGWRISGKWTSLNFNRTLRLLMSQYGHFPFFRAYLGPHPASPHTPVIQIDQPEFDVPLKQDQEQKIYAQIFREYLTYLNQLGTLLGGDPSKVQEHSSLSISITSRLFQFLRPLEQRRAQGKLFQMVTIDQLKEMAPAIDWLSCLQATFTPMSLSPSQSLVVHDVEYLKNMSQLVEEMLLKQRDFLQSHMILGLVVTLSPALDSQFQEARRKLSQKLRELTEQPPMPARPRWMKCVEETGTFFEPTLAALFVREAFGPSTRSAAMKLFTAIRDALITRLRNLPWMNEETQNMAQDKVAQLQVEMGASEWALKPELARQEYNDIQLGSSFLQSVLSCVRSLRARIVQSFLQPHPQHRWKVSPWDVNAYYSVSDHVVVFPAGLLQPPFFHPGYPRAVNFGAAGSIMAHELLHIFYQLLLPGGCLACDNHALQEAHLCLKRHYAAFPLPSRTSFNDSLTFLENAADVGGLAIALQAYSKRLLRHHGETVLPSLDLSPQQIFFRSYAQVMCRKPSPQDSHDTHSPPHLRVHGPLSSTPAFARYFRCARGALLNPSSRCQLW
Test: flow cytometry on human K-k+ RBCs
readout_name: binding result

>>> measured_value("PUMA 1 human IgG2-04 isoallotype (antibody, Isoallotype named in CLM-00007; not shown: human IgG2 heavy chain constant region, isoallotype IGHG2*04; human kappa light chain constant region (vector pFUSE2-CLIg-hk)) heavy: EVQLQQSGPELVKPGASVKMSCKASGYTFTDYYMKWVKQSHGKSLEWIGDLNPNNGDTFYNQKFKGKATLTVDKSSSTAYIQLNSLTSEDSAVYYCAREAGSSFGSSCNYWGQGTTLTVS light: SVVMTQTPKFLLVSAGDRVTITCKASQTVSKDVAWYQQQPGQSPKLLIYYASNRYTGVPDRFTGSGYGTDFTFTISTVQAEDLAVYFCQQDYSSPYTFGGGTKLEIK")
"no binding"
>>> measured_value("PUMA 1 human IgG3-03 isoallotype (antibody, also called PUMA1-IgG3-03; not shown: human kappa light chain constant region (vector pFUSE2-CLIg-hk)) heavy: EVQLQQSGPELVKPGASVKMSCKASGYTFTDYYMKWVKQSHGKSLEWIGDLNPNNGDTFYNQKFKGKATLTVDKSSSTAYIQLNSLTSEDSAVYYCAREAGSSFGSSCNYWGQGTTLTVS light: SVVMTQTPKFLLVSAGDRVTITCKASQTVSKDVAWYQQQPGQSPKLLIYYASNRYTGVPDRFTGSGYGTDFTFTISTVQAEDLAVYFCQQDYSSPYTFGGGTKLEIK")
"no binding"
>>> measured_value("PUMA 1 human IgG1-03 isoallotype (antibody, Isoallotype named in CLM-00007; not shown: human IgG1 heavy chain constant region, isoallotype IGHG1*03; human kappa light chain constant region (vector pFUSE2-CLIg-hk)) heavy: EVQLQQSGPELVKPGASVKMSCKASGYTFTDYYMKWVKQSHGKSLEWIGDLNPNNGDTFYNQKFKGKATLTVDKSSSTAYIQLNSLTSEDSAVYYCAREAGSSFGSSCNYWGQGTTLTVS light: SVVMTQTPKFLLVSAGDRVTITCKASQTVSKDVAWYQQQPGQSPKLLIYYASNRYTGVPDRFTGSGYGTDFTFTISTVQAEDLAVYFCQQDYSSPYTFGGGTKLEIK")
"no binding"
